In what follows, each item is paired with its pKi for EGFR^WT (Homo sapiens, UniProt P00533).
pKi: −log10 of the molar value.
measured quantity: pKi

a = Cn1cc(-c2nn([C@@H]3CCCN(C(=O)/C(C#N)=C/C4CC4)C3)c3ncnc(N)c23)c2ccccc21
b = N#C/C(=C\C1CC1)C(=O)N1CCC[C@@H](n2nc(-c3cnc4[nH]ccc4c3)c3c(N)ncnc32)C1
c = N#C/C(=C\C1CC1)C(=O)N1CCC[C@@H](n2nc(-c3cccc4ccccc34)c3c(N)ncnc32)C1
Request: Sort key: pKi. Order: high to low. Scope: items listed above. Sort the labels as requested; that list is your answer.
Result: c, b, a
(c: 7.19, b: 6.58, a: 5.78)

* * *

# study target: EGFR^L858R/T790M (Homo sapiens, UniProt P00533, L858R/T790M)
# Sequence (P00533 25-1210 T790M/L858R): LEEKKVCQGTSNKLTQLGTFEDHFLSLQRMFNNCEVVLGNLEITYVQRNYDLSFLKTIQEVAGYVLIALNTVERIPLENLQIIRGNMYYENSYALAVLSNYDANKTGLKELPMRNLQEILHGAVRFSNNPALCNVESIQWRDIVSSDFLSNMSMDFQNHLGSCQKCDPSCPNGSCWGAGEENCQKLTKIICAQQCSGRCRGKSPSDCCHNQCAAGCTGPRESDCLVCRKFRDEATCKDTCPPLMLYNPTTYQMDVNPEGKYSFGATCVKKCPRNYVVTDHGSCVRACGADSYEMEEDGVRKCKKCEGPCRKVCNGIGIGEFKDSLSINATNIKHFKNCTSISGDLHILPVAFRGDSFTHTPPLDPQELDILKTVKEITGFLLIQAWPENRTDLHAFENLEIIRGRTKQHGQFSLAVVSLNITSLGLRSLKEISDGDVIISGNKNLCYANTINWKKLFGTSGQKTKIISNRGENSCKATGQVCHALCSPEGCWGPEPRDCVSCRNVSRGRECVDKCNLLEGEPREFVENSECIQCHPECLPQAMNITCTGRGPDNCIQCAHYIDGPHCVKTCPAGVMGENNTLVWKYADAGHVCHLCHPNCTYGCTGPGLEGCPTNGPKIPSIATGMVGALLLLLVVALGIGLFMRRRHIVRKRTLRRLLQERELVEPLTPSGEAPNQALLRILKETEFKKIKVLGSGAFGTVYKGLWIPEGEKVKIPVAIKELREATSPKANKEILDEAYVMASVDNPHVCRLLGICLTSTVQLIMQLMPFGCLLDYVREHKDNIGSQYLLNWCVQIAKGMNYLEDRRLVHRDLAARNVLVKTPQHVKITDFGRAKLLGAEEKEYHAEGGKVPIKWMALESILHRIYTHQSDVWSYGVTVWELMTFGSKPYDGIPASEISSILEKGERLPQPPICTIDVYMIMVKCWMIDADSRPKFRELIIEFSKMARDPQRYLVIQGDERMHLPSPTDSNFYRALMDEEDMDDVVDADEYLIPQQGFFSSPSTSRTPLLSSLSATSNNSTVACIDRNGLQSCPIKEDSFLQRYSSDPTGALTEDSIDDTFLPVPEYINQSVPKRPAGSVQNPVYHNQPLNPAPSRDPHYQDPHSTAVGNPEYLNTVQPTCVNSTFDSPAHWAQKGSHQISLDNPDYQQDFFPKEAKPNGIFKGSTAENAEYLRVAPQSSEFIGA
# assay name: Kinetic characterization
# Format: biochemical
pKi: −log10 of the molar value.
measured quantity: pKi

I = Cn1cc(-c2nn([C@@H]3CCCN(C(=O)/C(C#N)=C/C4CC4)C3)c3ncnc(N)c23)c2ccccc21
II = N#C/C(=C\C1CC1)C(=O)N1CCC[C@@H](n2nc(-c3cccc4ccccc34)c3c(N)ncnc32)C1
III = N#C/C(=C\C1CC1)C(=O)N1CCC[C@@H](n2nc(-c3cnc4[nH]ccc4c3)c3c(N)ncnc32)C1
Request: Give the ascending ranking of the items by reported pKi. Sort the labels as requested; that list is your answer.
Result: I, III, II

* * *

# study target: EGFR^WT (Homo sapiens)
# Sequence (P00533 25-1210): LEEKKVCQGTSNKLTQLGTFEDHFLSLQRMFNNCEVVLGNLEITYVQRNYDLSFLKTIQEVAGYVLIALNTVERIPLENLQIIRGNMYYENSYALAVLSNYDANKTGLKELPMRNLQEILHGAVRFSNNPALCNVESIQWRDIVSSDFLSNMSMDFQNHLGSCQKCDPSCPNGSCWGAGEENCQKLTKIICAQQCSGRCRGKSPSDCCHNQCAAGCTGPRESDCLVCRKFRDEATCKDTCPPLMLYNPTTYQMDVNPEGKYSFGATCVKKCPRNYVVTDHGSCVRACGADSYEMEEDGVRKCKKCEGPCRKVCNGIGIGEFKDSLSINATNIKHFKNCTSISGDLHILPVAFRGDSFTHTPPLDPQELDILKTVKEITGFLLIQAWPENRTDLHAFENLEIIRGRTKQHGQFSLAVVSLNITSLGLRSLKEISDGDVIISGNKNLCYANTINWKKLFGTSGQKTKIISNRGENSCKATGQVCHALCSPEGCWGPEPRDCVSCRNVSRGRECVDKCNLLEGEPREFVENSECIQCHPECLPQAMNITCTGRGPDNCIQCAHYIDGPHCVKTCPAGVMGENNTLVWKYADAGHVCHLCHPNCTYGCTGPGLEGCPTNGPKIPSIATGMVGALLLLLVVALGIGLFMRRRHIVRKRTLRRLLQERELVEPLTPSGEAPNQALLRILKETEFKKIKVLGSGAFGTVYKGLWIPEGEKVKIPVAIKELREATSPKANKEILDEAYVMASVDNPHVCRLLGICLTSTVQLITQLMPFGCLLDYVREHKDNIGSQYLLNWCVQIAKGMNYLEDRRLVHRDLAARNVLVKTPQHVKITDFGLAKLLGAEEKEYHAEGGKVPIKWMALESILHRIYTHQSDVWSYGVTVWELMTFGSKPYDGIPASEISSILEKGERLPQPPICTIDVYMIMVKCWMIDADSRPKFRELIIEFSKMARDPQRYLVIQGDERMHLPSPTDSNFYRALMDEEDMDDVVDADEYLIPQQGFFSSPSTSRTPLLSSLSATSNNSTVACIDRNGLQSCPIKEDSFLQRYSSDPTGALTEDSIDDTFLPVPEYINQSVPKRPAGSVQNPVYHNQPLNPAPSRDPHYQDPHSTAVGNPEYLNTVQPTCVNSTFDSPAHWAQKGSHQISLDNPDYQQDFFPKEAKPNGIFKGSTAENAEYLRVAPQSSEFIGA
measured quantity: IC50 (nM)

Recorded IC50, per entry:
>>> recorded_number("Cn1cc(-c2nn([C@@H]3CCCN(C(=O)/C(C#N)=C/C4CC4)C3)c3ncnc(N)c23)c2ccccc21 [1e]")
338
>>> recorded_number("N#C/C(=C\\C1CC1)C(=O)N1CCC[C@@H](n2nc(-c3cccc4ccccc34)c3c(N)ncnc32)C1 [1c]")
102

1 = N#C/C(=C\C1CC1)C(=O)N1CCC[C@@H](n2nc(-c3cnc4[nH]ccc4c3)c3c(N)ncnc32)C1 [1d]
2 = N#C/C(=C\C1CC1)C(=O)N1CCC[C@@H](n2nc(-c3ccccc3)c3c(N)ncnc32)C1 [1a]
Request: Select the item with the higher value of IC50 from the options 1 and 2 listed. Output the label that corresponds to your choice.
Result: 2

* * *

# study target: EGFR^L858R (Homo sapiens, UniProt P00533, L858R)
# Sequence (P00533 25-1210 L858R): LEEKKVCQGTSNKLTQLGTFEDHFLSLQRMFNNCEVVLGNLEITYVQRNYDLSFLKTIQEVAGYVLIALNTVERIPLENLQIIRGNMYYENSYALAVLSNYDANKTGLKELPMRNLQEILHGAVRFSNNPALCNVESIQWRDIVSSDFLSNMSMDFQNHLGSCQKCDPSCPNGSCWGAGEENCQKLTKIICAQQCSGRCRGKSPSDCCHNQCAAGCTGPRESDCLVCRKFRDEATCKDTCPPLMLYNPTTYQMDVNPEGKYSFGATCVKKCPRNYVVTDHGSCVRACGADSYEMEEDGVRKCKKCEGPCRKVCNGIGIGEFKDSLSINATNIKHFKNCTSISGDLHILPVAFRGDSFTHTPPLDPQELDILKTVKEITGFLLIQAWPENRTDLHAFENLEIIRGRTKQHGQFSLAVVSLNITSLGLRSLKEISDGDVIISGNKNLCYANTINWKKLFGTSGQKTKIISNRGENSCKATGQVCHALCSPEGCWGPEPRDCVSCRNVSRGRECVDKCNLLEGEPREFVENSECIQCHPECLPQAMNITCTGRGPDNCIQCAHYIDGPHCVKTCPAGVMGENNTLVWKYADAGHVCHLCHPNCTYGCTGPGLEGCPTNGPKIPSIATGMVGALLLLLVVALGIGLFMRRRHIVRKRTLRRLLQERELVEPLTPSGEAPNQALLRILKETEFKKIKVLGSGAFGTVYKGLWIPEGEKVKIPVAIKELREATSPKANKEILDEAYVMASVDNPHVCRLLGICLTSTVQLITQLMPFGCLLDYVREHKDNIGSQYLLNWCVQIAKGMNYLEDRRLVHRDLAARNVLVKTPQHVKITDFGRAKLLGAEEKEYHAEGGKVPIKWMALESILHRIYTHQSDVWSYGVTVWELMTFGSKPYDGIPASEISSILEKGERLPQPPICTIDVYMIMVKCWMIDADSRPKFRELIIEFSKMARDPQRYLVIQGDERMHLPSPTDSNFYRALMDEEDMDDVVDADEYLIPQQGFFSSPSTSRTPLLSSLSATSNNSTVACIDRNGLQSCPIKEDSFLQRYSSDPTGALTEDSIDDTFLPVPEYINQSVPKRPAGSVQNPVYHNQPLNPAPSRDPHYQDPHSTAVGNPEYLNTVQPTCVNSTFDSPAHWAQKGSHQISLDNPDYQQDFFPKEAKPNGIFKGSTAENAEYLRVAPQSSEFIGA
# assay name: biochemical
pIC50: −log10 of the molar value.
measured quantity: pIC50

>>> recorded_number("N#C/C(=C\\C1CC1)C(=O)N1CCC[C@@H](n2nc(-c3ccccc3)c3c(N)ncnc32)C1 [1a]")
6.64

A = Cn1cc(-c2nn([C@@H]3CCCN(C(=O)/C(C#N)=C/C4CC4)C3)c3ncnc(N)c23)c2ccccc21 [1e]
B = N#C/C(=C\C1CC1)C(=O)N1CCC[C@@H](n2nc(-c3cccc(C(F)(F)F)c3)c3c(N)ncnc32)C1 [1b]
Request: Select the item with the higher value of pIC50 from the options A and B listed. Output the label that corresponds to your choice.
Result: A

Each recorded value in this set is attributed to paper PMC6018958.
